Entries and their inhibition at 10 µM values follow.
biological target: FAAH (Mus musculus, UniProt O08914); construct: Proteomes (mouse brain membrane fraction or cell lysates); from tissue; host or cells: mouse brain membrane fraction (or cell lysates, not specified); test: In vitro competitive activity-based protein profiling (gel-based, FP-Rh or HT-01 probe); assay type: biochemical; settings: 10 μM inhibitor; read-out: % Inhibition at 10 μM, B = FAAH
Sequence (O08914 whole entry): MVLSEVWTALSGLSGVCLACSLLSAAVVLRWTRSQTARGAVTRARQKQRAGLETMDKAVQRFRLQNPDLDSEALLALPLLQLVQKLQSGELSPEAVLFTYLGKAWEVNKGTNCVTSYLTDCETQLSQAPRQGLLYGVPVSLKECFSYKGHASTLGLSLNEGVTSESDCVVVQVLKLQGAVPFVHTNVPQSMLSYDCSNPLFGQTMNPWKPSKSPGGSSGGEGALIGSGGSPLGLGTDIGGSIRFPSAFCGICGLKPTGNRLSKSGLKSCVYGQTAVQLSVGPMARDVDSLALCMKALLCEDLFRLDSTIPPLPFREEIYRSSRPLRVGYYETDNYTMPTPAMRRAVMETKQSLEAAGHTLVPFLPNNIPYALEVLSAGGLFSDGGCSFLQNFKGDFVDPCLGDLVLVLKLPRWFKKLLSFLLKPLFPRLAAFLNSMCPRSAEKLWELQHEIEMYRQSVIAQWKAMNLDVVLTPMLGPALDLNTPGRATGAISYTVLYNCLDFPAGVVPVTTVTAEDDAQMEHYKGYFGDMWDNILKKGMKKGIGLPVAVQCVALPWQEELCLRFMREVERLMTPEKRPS

O=C(N1CCN(CC2CC2)CC1)n1cc(Cl)cn1: > 75%
CN(CCN(C)S(C)(=O)=O)C(=O)n1cc(C#N)cn1: > 75%
O=C(c1cnn(C(=O)N2CCN(Cc3ccc4c(c3)OCO4)CC2)c1)N1CCOCC1: > 75%
O=C(N1CCCC1)n1cc(Cl)cn1: > 75%

inhibition at 10 µM reading for Cc1cnn(C(=O)N2CCN(C(c3ccc(Cl)cc3)c3ccc(Cl)cc3)CC2)c1 : < 25%

---

target: ABHD6 (Mus musculus); construct: Proteomes (mouse brain membrane fraction or cell lysates); from tissue; host or cells: mouse brain membrane fraction (or cell lysates, not specified); experiment: In vitro competitive activity-based protein profiling (gel-based, FP-Rh or HT-01 probe); format: biochemical; settings: 1 μM inhibitor; gel-based competitive ABPP; read-out: % Inhibition at 1 μM, C = ABHD6
Entries and their inhibition at 1 µM values follow.

The examples below pair each entry with its known result.
O=C(N1CCN(Cc2ccccc2C(F)(F)F)CC1)n1cc(C(F)(F)F)cn1: > 75%
CNC(=O)c1cnn(C(=O)N2CCN(Cc3cccc(Oc4ccccc4)c3)CC2)c1: > 75%
Cc1cccc(CN2CCN(C(=O)n3cc(C(F)(F)F)cn3)CC2)c1: > 75%
CCN(Cc1ccc(N2CCOCC2)cc1)C(=O)n1cc(C(F)(F)F)cn1: < 25%
N#Cc1cnn(C(=O)N2CCN(Cc3cccc(Oc4ccccc4)c3)CC2)c1: > 75%

Please find the next compound below.
inhibition at 1 µM reading for CCN(Cc1cccc(N2CCOCC2)c1)C(=O)n1cc(C)cn1 : < 25%

---

Entries and their inhibition at 1 µM values follow.
Target: ABHD6 (Mus musculus, UniProt Q8R2Y0)
Construct: Proteomes (mouse brain membrane fraction or cell lysates); from tissue; host or cells: mouse brain membrane fraction (or cell lysates, not specified)
Sequence (Q8R2Y0 1-336): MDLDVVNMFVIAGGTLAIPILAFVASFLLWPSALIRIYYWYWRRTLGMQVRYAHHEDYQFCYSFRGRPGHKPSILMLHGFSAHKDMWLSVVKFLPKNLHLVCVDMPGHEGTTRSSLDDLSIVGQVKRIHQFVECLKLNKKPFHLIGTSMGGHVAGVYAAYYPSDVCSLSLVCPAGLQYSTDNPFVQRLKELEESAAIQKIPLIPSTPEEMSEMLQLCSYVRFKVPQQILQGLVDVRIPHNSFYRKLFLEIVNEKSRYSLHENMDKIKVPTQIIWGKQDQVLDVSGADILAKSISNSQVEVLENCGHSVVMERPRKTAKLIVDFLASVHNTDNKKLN
Experiment: In vitro competitive activity-based protein profiling (gel-based, FP-Rh or HT-01 probe)
Assay type: biochemical
Settings: 1 μM inhibitor; read-out: % Inhibition at 1 μM, C = ABHD6

The examples below pair each entry with its known result.
CC(=O)N1CCN(C(=O)n2cc(C(F)(F)F)cn2)CC1 [Example 149]: < 25%
Cc1ccccc1-c1cnn(C(=O)N2CCN(Cc3c(N4CCCC4)cccc3C(F)(F)F)CC2)c1 [Example 114]: > 75%
Cc1cnn(C(=O)N(C)CCN(C)C(=O)OC(C)(C)C)c1 [Example 29]: < 25%
CCN(Cc1ccc(C)cc1)C(=O)n1cc(Cl)cn1 [Example 133]: < 25%

# value of inhibition at 1 µM, ABHD6 (Mus musculus, UniProt Q8R2Y0), item Cc1cccc(N2CCN(C(=O)n3cc(C(F)(F)F)cn3)CC2)c1 [Example 231] = > 75%

---

target: PLA2G7 (Mus musculus, UniProt Q60963); construct: Proteomes (mouse brain membrane fraction or cell lysates); from tissue; host or cells: mouse brain membrane fraction (or cell lysates, not specified); test: In vitro competitive activity-based protein profiling (gel-based, FP-Rh or HT-01 probe); type: biochemical; settings: mouse brain membrane fraction or cell lysates, 30 min preincubation at 37° C.
Sequence (Q60963 22-440): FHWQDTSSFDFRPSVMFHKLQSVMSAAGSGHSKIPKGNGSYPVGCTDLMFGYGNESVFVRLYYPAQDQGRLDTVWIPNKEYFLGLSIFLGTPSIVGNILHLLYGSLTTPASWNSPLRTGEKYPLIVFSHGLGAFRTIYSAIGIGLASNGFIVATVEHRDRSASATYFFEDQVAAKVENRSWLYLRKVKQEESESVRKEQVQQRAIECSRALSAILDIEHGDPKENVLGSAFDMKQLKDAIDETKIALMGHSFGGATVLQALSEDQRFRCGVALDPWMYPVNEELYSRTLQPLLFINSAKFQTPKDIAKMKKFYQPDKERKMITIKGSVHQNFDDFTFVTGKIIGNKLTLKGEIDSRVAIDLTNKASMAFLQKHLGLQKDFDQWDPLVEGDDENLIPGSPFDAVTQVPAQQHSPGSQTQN
Entries and their IC50 values follow.

The examples below pair each entry with its known result.
O=C(N1CCN(Cc2cccc(Cl)c2)CC1)n1cc(C(F)(F)F)cn1: 100 to 1000 nM
CCN(Cc1ccc(N2CCOCC2)cc1)C(=O)n1cc(C(F)(F)F)cn1: > 1000 nM

IC50 reading for O=C(N1CCN(Cc2ccccc2Cl)CC1)n1cc(C(F)(F)F)cn1 : < 100 nM

IC50 reading for O=C(N1CCN(c2ccccc2Cl)CC1)n1cc(C(F)(F)F)cn1 : < 100 nM

IC50 reading for CCN(Cc1ccc(OC)cc1)C(=O)n1cc(C(F)(F)F)cn1 : > 1000 nM

IC50 reading for O=C(N1CCN(c2ccc(N3CCCC3)cc2)CC1)n1cc(C(F)(F)F)cn1 : < 100 nM

IC50 reading for O=C(N1CCN(Cc2cccc(C(F)(F)F)c2)CC1)n1cc(C(F)(F)F)cn1 : 100 to 1000 nM

IC50 reading for CCN(Cc1cccc(N2CCOCC2)c1)C(=O)n1cc(Cl)cn1 : > 1000 nM

IC50 reading for N#Cc1cnn(C(=O)N2CCCCCC2)c1 : > 1000 nM

IC50 reading for CCN(Cc1cccc(C)c1)C(=O)n1cc(C#N)cn1 : > 1000 nM

---

molecular target: MAGL (Mus musculus); construct: Proteomes (mouse brain membrane fraction or cell lysates); from tissue; host or cells: mouse brain membrane fraction (or cell lysates, not specified); assay: In vitro competitive activity-based protein profiling (gel-based, FP-Rh or HT-01 probe); format: biochemical; details: 1 μM inhibitor
Sequence (O35678 whole entry): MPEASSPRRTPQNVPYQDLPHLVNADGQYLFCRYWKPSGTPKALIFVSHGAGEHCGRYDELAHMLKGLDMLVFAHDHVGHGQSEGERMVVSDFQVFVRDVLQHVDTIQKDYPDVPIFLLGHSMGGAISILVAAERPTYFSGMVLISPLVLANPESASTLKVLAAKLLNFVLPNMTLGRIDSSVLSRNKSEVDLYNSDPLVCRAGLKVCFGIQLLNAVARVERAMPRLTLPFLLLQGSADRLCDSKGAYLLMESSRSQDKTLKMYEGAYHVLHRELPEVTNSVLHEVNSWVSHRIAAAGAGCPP
Entries and their inhibition at 1 µM values follow.

The examples below pair each entry with its known result.
N#Cc1cnn(C(=O)N2CCN(Cc3ccc(-c4ccccc4)cc3OCc3ccccc3)CC2)c1: > 75%
Cc1ccccc1N1CCN(C(=O)n2cc(C(F)(F)F)cn2)CC1: > 75%
O=C(N1CCN(c2ccccc2)CC1)n1cc(C(F)(F)F)cn1: > 75%
O=C(c1cnn(C(=O)N2CCN(Cc3ccc4c(c3)OCO4)CC2)c1)N1CCCCC1: 25 to 75%
O=C(N1CCN(c2ccccc2N2CCCC2)CC1)n1cc(C(F)(F)F)cn1: > 75%

# value of inhibition at 1 µM, MAGL (Mus musculus), item O=C(N1CCOCC1)n1cc(C(F)(F)F)cn1 = < 25%

# value of inhibition at 1 µM, MAGL (Mus musculus), item Cc1cnn(C(=O)N2CCN(C)CC2)c1 = < 25%

# value of inhibition at 1 µM, MAGL (Mus musculus), item O=C(N1CCN(C(c2ccc3c(c2)COC3)c2ccc3c(c2)COC3)CC1)n1cc(Cl)cn1 = > 75%

# value of inhibition at 1 µM, MAGL (Mus musculus), item Cc1cc(-c2ccccc2)ccc1CN1CCN(C(=O)n2cc(C(F)(F)F)cn2)CC1 = > 75%

# value of inhibition at 1 µM, MAGL (Mus musculus), item O=C(N1CCN(Cc2ccc(-c3ccccc3)cc2Cl)CC1)n1cc(C(F)(F)F)cn1 = > 75%

# value of inhibition at 1 µM, MAGL (Mus musculus), item CS(=O)(=O)N1CCCN(C(=O)n2cc(Cl)cn2)CC1 = < 25%

# value of inhibition at 1 µM, MAGL (Mus musculus), item CN(CCN(C)C(=O)n1cc(C(F)(F)F)cn1)C(=O)c1ccccc1 = < 25%

# value of inhibition at 1 µM, MAGL (Mus musculus), item Cc1cnn(C(=O)N2CCN(Cc3ccc(-c4ccccc4)cc3)CC2)c1 = > 75%

# value of inhibition at 1 µM, MAGL (Mus musculus), item Cc1cccc(N2CCN(C(=O)n3cc(C(F)(F)F)cn3)CC2)c1 = > 75%

# value of inhibition at 1 µM, MAGL (Mus musculus), item O=C(N1CCN(c2ccccc2N2CCOCC2)CC1)n1cc(C(F)(F)F)cn1 = > 75%

# value of inhibition at 1 µM, MAGL (Mus musculus), item Cc1cnn(C(=O)N2CCN(Cc3ccc(OCc4ccccc4)cc3)CC2)c1 = 25 to 75%

# value of inhibition at 1 µM, MAGL (Mus musculus), item O=C(c1ccccc1)N1CCCN(C(=O)n2cc(C(F)(F)F)cn2)CC1 = > 75%

# value of inhibition at 1 µM, MAGL (Mus musculus), item Cc1cnn(C(=O)N2CCN(Cc3ccccc3)CC2)c1 = 25 to 75%

# value of inhibition at 1 µM, MAGL (Mus musculus), item O=C(N1CCN(Cc2cccc(Cl)c2)CC1)n1cc(Cl)cn1 = > 75%
